Hi there, I'd appreciate the recorded Drug absorption for every entry that follows.
Species: Homo sapiens
Experiment: Drug absorption in buccal cavity in human at pH 5.50 after 5 mins by UV spectrometry
Assay type: ADME, organism-based
Settings: in vivo, other, pH 5.5, 5 min
Give bare numbers, in %.

Look over these answered cases.
{"molecule": "CN1CC[C@H]2CCC[C@@H](OC(=O)c3ccc(Cl)cc3)[C@@H]2C1 (mixture of isomers)", "Drug absorption, %": 17.4}
{"molecule": "CN1CC[C@H]2CCC[C@@H](NS(=O)(=O)c3ccccc3)[C@@H]2C1 (mixture of isomers)", "Drug absorption, %": 11.9}
{"molecule": "CN1CC[C@H]2CCC[C@@H](OC(=O)c3ccc(Cl)cc3)[C@H]2C1 (mixture of isomers)", "Drug absorption, %": 13.7}
{"molecule": "CN1CC[C@H]2CCC[C@@H](NC(=O)c3ccc(Cl)c(Cl)c3)[C@H]2C1 (mixture of isomers)", "Drug absorption, %": 20.1}
{"molecule": "CN1CC[C@H]2CCC[C@@H](NS(=O)(=O)c3ccccc3)[C@H]2C1 (mixture of isomers)", "Drug absorption, %": 14.9}
{"molecule": "CN1CC[C@H]2CCC[C@@H](NC(=O)c3ccccc3)[C@@H]2C1 (mixture of isomers)", "Drug absorption, %": 11.1}
{"molecule": "COc1ccc(C(=O)N[C@@H]2CCC[C@@H]3CCN(C)C[C@@H]32)cc1OC (mixture of isomers)", "Drug absorption, %": 7}
{"molecule": "COc1cc(C(=O)O[C@@H]2CCC[C@@H]3CCN(C)C[C@@H]32)cc(OC)c1OC (mixture of isomers)", "Drug absorption, %": 21.2}
{"molecule": "CN1CC[C@H]2CCC[C@@H](NC(=O)c3ccc(Cl)cc3)[C@@H]2C1 (mixture of isomers)", "Drug absorption, %": 8.2}
{"molecule": "COc1ccc(C(=O)N[C@@H]2CCC[C@@H]3CCN(C)C[C@@H]32)cc1 (mixture of isomers)", "Drug absorption, %": 4.7}

Dear colleague, could you send me Drug absorption for each of the items below? Thanks.
1. COc1ccccc1C(=O)N[C@@H]1CCC[C@@H]2CCN(C)C[C@@H]21 (mixture of isomers)
2. COc1cc(C(=O)N[C@@H]2CCC[C@@H]3CCN(C)C[C@H]32)cc(OC)c1OC (mixture of isomers)
3. COc1ccc(C(=O)N[C@@H]2CCC[C@@H]3CCN(C)C[C@H]32)cc1OC (mixture of isomers)
4. CN1CC[C@H]2CCC[C@@H](NC(=O)c3ccc(Cl)cc3)[C@H]2C1 (mixture of isomers)
5. CN1CC[C@H]2CCC[C@@H](NC(=O)c3ccccc3)[C@H]2C1 (mixture of isomers)

stdout:
[1.2, 5.5, 16.8, 6.7, 9.3]
